Parameter EC50: see the listing below.
target: UniProt:P35414; experiment: hAPJ Calcium Flux Assay; settings: Chem-5 APJ stable cells, FLIPR calcium flux; read-out: hAPJ Ca2+ Flux EC50
Sequence (P35414 whole entry): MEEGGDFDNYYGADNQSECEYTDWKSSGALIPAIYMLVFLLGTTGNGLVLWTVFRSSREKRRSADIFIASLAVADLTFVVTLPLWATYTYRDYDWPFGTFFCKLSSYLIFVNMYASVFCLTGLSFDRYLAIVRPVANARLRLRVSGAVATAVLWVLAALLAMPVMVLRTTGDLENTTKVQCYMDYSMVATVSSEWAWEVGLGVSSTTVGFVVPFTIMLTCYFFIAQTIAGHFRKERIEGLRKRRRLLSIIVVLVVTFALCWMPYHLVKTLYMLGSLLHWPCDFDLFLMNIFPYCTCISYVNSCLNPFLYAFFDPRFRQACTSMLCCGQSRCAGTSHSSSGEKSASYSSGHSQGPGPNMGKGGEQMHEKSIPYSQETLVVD
Bridge positions count the residues as written; N and C are the ends. Square brackets hold non-standard residues; d marks the D form. Peptide text beside a SMILES is read from it. pGlu = O=C1CC[C@@H](C(=O)O)N1; hCys = N[C@@H](CCS)C(=O)O; Nle = CCCC[C@H](N)C(=O)O
MEASURED_ATTRIBUTE: EC50 (nM)

COMPOUND	READOUT_VALUE
CCCC[C@@H]1NC(=O)[C@@H]2CCCN2C(=O)CNC(=O)[C@H](CCCCN)NC(=O)[C@@H](NC(=O)[C@H](CO)NC(=O)[C@H](CC(C)C)NC(=O)[C@H](CCCNC(=N)N)NC(=O)[C@@H]2CCCN2C(=O)[C@H](CCCNC(=N)N)NC(=O)[C@@H]2CCC(=O)N2)CSSCC[C@@H](C(=O)N[C@@H](Cc2ccccc2)C(=O)O)NC1=O [Example 12, pE-R-P-R-L-S-C*-K-G-P-Nle-hC*-F-OH] ([pGlu]RPRLSCKGP[Nle][hCys]F-OH; disulfide 7-12)	81.7
CCCC[C@@H]1NC(=O)[C@@H]2CCCN2C(=O)[C@@H](NC(=O)[C@H](CCCCN)NC(=O)[C@H](Cc2c[nH]cn2)NC(=O)[C@H](CO)NC(=O)[C@H](CC(C)C)NC(=O)[C@H](CCCNC(=N)N)NC(=O)[C@@H]2CCCN2C(=O)[C@H](CCCNC(=N)N)NC(=O)[C@@H]2CCC(=O)N2)CSSC[C@@H](C(=O)N[C@@H](Cc2ccccc2)C(=O)O)NC1=O [Example 14, pE-R-P-R-L-S-H-K-C*-P-Nle-C*-F-OH] ([pGlu]RPRLSHKCP[Nle]CF-OH; disulfide 9-12)	0.81
